experiment: Clinical study: quantitation of plasma brimonidine and timolol concentrations; format: in vivo, patients; conditions: human, plasma, other: ophthalmic solution, 1 hour postdose, week 2; read-out: mean±SD plasma timolol concentration
EXPERIMENTAL_ENDPOINT: concentration at 1 h (ng/mL)
State just the number; it will be interpreted in ng/mL.

Looking up CC(C)(C)NC[C@H](O)COc1nsnc1N1CCOCC1.O=C(O)/C=C\C(=O)O [Timolol] , I found its concentration at 1 h recorded as 0.95

----------
assay: Clinical study: quantitation of plasma brimonidine and timolol concentrations; type: in vivo, patients; conditions: human, plasma, other: ophthalmic solution, 1 hour postdose, month 3; read-out: mean±SD plasma timolol concentration
EXPERIMENTAL_ENDPOINT: concentration at 1 h (ng/mL)
The reply should contain only the number, in ng/mL.

Record CC(C)(C)NC[C@H](O)COc1nsnc1N1CCOCC1.O=C(O)/C=C\C(=O)O , field concentration at 1 h: 0.873

Reference for the values: patent US7642258B2
